# TARGET OR SYSTEM: TRAF2 and NCK-interacting protein kinase (Homo sapiens, UniProt Q9UKE5); note: in the data inactive means no Kd found up to 30 µM
# Sequence (Q9UKE5 whole entry): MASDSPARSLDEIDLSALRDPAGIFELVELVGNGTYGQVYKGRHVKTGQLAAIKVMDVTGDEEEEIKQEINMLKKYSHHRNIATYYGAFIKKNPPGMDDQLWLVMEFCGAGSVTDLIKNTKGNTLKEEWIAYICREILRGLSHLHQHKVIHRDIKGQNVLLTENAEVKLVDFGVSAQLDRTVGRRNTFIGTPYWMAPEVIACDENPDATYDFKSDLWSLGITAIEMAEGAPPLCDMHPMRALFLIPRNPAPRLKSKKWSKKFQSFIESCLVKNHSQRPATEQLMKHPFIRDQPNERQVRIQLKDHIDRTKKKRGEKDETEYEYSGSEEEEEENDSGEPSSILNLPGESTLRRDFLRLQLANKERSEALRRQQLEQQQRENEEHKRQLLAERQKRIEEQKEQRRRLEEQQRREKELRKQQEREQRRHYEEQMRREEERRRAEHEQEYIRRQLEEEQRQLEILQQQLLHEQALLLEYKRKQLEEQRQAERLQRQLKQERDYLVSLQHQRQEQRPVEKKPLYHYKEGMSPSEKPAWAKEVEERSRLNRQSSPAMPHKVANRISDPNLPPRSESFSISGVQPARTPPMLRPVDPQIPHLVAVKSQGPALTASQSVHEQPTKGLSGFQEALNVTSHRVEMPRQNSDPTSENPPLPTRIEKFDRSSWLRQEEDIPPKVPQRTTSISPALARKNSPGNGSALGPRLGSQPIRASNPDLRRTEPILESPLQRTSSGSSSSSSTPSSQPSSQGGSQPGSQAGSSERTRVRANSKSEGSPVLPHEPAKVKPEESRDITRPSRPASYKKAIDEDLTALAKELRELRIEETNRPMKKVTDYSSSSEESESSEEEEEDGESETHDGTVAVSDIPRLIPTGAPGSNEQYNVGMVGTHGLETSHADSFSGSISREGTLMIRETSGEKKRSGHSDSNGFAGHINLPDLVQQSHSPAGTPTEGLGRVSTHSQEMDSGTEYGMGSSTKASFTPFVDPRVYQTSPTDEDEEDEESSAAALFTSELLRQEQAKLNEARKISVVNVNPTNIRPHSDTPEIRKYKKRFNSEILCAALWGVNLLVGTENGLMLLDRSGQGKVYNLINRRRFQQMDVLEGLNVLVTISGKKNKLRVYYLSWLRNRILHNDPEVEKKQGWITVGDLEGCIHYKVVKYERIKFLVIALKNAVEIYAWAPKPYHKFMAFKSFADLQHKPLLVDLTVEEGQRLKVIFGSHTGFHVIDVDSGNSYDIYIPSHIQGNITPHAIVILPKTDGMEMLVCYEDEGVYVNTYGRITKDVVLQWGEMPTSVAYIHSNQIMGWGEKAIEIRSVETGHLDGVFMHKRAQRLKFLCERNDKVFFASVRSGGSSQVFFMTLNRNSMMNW
Structures can show the parent of a compound that is named as a salt. The source made the active and inactive calls.
Write down one outcome, taken from 1 for active, 0 for inactive

Which result was noted for this compound in the test: CCS(=O)(=O)N1CCN(c2ccc(Nc3ncc(C(N)=O)c(NC4CC4)n3)cc2)CC1 [Cerdulatinib Hydrochloride]
0

Which result was noted for this compound in the test: CCNC(=O)C#Cc1ccc2c(c1)NC(=O)/C2=C(\Nc1ccc(CN(C)C)cc1)c1ccccc1
0

Which result was noted for this compound in the test: Cc1nc2cc(-n3ncc(C(=O)c4cc5ccccc5[nH]4)c3N)ccc2[nH]1
0

Which result was noted for this compound in the test: CN1C/C=C/CCOc2cccc(c2)-c2ccnc(n2)Nc2cccc(c2)C1
0

Which result was noted for this compound in the test: Cc1cc(Nc2ncc(Cl)c(Nc3ccccc3S(=O)(=O)C(C)C)n2)c(OC(C)C)cc1C1CCNCC1
0

Which result was noted for this compound in the test: CCn1cc(-c2ccnc3[nH]c(-c4cccc(CN(C)C)c4)cc23)c(-c2ccc(NC(=O)N(C)C)cc2)n1
0

Which result was noted for this compound in the test: CO[C@H]1C[C@@H]2CC[C@@H](C)[C@@](O)(O2)C(=O)C(=O)N2CCCC[C@H]2C(=O)O[C@H]([C@H](C)C[C@@H]2CC[C@@H](OP(C)(C)=O)[C@H](OC)C2)CC(=O)[C@H](C)/C=C(\C)[C@@H](O)[C@@H](OC)C(=O)[C@H](C)C[C@H](C)/C=C/C=C/C=C/1C
0

Which result was noted for this compound in the test: NC(=O)c1c(OCc2c(F)cc(Br)cc2F)nsc1NC(=O)NCCCCN1CCCC1
0

Which result was noted for this compound in the test: O=C(Nc1nc2cccc(-c3ccc(CN4CCS(=O)(=O)CC4)cc3)n2n1)C1CC1
0

Which result was noted for this compound in the test: C=CC(=O)Nc1cc2c(Nc3ccc(F)c(Cl)c3)ncnc2cc1C#CC(C)(C)N1CCN(C)CC1 [AV-412 FREE BASE]
0

Which result was noted for this compound in the test: CN1CCN(CCOc2cc(OC3CCOCC3)c3c(Nc4c(Cl)ccc5c4OCO5)ncnc3c2)CC1
1

Which result was noted for this compound in the test: CO[C@H]1C[C@@H]2CC[C@@H](C)[C@@](O)(O2)C(=O)C(=O)N2CCCC[C@H]2C(=O)O[C@H]([C@H](C)C[C@@H]2CC[C@@H](O)[C@H](OC)C2)CC(=O)[C@H](C)/C=C(\C)[C@@H](O)[C@@H](OC)C(=O)[C@H](C)C[C@H](C)/C=C/C=C/C=C/1C
0

Which result was noted for this compound in the test: CCn1c(C(=O)N(C2CC2)C2CC2)cc2c3c(ncn3C)c(Nc3cc(C)n(C)n3)nc21
0

Which result was noted for this compound in the test: Cn1cc(-c2cnc3ccc4ccc(CS(=O)(=O)NCc5ccccn5)cc4c(=O)c3c2)cn1
0

Which result was noted for this compound in the test: COc1ccc(S(=O)(=O)N(C(C)=O)c2ccccc2/C=C/c2cc[n+]([O-])cc2)cc1
0

Which result was noted for this compound in the test: CN(C[C@@H]1COCCO1)S(=O)(=O)Nc1ccc2ccc3ncc(-c4cnn(C)c4)cc3c(=O)c2c1
0

Which result was noted for this compound in the test: CCS(=O)(=O)c1cccc(-c2cc(C(=O)NC3CCN(C)CC3)c(C)c3[nH]c4ncc(C)cc4c23)c1
0

Which result was noted for this compound in the test: Cc1nc2cc(-c3nn(C(C)C)c4ncnc(N)c34)ccc2o1
0

Which result was noted for this compound in the test: C[C@H]1CNCCCN1S(=O)(=O)c1cccc2cncc(F)c12
0

Which result was noted for this compound in the test: Cc1cc(C(=O)NOCCO)c(Nc2ccc(I)cc2F)n(C)c1=O
0

Which result was noted for this compound in the test: Cn1cnc2c(F)c(Nc3ccc(Br)cc3F)c(C(=O)NOCCO)cc21
0

Which result was noted for this compound in the test: NC1(c2ccc(-c3nc4ccn5c(=O)[nH]nc5c4cc3-c3ccccc3)cc2)CCC1
0

Which result was noted for this compound in the test: CNC(=O)c1cccc2cc(Oc3ccnc4cc(OCC5(N)CC5)c(OC)cc34)ccc12
0

Which result was noted for this compound in the test: CO[C@H]1C[C@@H]2CC[C@@H](C)[C@@](O)(O2)C(=O)C(=O)N2CCCC[C@H]2C(=O)O[C@H]([C@H](C)C[C@@H]2CC[C@@H](OC(=O)C(C)(CO)CO)[C@H](OC)C2)CC(=O)[C@H](C)/C=C(\C)[C@@H](O)[C@@H](OC)C(=O)[C@H](C)C[C@H](C)/C=C/C=C/C=C/1C
0

Which result was noted for this compound in the test: Cn1cc(-c2cnn3c(N)c(Br)c([C@@H]4CCCNC4)nc23)cn1
0

Which result was noted for this compound in the test: COCC(=O)NC/C=C/c1ccc2ncnc(Nc3ccc(Oc4ccc(C)nc4)c(C)c3)c2c1
0

Which result was noted for this compound in the test: COc1cc2ncnc(Oc3cccc(NC(=O)Nc4cc(C(C)(C)C(F)(F)F)on4)c3)c2cc1OC
0

Which result was noted for this compound in the test: N#CC1(c2ccc(NC(=O)c3cccnc3NCc3ccncc3)cc2)CCCC1
0

Which result was noted for this compound in the test: O=c1[nH]ccc2cc(OC3CCNCC3)ccc12 [SAR-407899 FREE BASE]
0

----------
So I've got a bunch of molecules here, and I need their Kd values.
# TARGET OR SYSTEM: Serine/threonine-protein kinase TAO3 (Homo sapiens, UniProt Q9H2K8); note: in the data inactive means no Kd found up to 30 µM
# Sequence (Q9H2K8 whole entry): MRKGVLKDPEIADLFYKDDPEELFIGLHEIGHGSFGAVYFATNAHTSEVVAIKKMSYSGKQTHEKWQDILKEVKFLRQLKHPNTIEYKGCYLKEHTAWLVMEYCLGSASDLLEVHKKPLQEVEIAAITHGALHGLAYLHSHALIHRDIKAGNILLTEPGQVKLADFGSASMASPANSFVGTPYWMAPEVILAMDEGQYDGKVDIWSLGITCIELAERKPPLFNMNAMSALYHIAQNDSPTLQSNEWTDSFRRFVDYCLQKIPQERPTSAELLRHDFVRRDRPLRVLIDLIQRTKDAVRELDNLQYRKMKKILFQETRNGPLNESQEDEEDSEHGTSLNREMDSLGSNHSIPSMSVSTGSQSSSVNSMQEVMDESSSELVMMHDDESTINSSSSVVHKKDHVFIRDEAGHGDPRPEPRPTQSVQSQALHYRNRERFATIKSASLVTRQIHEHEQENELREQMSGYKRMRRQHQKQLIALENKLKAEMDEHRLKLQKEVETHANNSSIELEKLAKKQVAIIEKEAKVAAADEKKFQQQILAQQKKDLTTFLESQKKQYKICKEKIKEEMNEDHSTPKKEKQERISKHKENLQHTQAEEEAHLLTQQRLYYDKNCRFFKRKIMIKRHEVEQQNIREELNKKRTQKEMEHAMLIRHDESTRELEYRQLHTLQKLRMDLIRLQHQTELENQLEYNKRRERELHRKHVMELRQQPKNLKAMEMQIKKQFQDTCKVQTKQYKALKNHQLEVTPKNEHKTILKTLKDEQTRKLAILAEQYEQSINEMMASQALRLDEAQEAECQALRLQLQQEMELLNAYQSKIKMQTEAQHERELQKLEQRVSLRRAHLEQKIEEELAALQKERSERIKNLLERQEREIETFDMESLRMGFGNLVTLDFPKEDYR
Calls of active or inactive are those of the source.

May I ask what Kd has been recorded for NC(=O)Nc1cc(-c2cccc(F)c2)sc1C(=O)N[C@H]1CCCNC1 ?
> 30 µM (inactive)

May I ask what Kd has been recorded for Cc1cnc(NC(=O)Nc2cc(Br)c(C)cc2OC[C@@H]2CNCCO2)cn1 ?
> 30 µM (inactive)

May I ask what Kd has been recorded for Cc1nc2cc(-c3nn(C(C)C)c4ncnc(N)c34)ccc2o1 ?
> 30 µM (inactive)

May I ask what Kd has been recorded for CCn1c(C(=O)N(C2CC2)C2CC2)cc2c3c(ncn3C)c(Nc3cc(C)n(C)n3)nc21 ?
> 30 µM (inactive)

May I ask what Kd has been recorded for CCn1cc(-c2ccnc3[nH]c(-c4cccc(CN(C)C)c4)cc23)c(-c2ccc(NC(=O)N(C)C)cc2)n1 ?
> 30 µM (inactive)

May I ask what Kd has been recorded for O=c1[nH]ccc2cc(OC3CCNCC3)ccc12 [SAR-407899 FREE BASE] ?
> 30 µM (inactive)

May I ask what Kd has been recorded for NC1(c2ccc(-c3nc4ccn5c(=O)[nH]nc5c4cc3-c3ccccc3)cc2)CCC1 ?
> 30 µM (inactive)

May I ask what Kd has been recorded for Cn1cnc2c(F)c(Nc3ccc(Br)cc3F)c(C(=O)NOCCO)cc21 ?
> 30 µM (inactive)

May I ask what Kd has been recorded for COCC(=O)NC/C=C/c1ccc2ncnc(Nc3ccc(Oc4ccc(C)nc4)c(C)c3)c2c1 ?
> 30 µM (inactive)

May I ask what Kd has been recorded for COc1ncc(-c2ccc3nccc(-c4ccnnc4)c3c2)cc1NS(=O)(=O)c1ccc(F)cc1F ?
> 30 µM (inactive)

----------
# TARGET OR SYSTEM: Cyclin-G-associated kinase (Homo sapiens, UniProt O14976); note: in the data inactive means no Kd found up to 30 µM
# Sequence (O14976 whole entry): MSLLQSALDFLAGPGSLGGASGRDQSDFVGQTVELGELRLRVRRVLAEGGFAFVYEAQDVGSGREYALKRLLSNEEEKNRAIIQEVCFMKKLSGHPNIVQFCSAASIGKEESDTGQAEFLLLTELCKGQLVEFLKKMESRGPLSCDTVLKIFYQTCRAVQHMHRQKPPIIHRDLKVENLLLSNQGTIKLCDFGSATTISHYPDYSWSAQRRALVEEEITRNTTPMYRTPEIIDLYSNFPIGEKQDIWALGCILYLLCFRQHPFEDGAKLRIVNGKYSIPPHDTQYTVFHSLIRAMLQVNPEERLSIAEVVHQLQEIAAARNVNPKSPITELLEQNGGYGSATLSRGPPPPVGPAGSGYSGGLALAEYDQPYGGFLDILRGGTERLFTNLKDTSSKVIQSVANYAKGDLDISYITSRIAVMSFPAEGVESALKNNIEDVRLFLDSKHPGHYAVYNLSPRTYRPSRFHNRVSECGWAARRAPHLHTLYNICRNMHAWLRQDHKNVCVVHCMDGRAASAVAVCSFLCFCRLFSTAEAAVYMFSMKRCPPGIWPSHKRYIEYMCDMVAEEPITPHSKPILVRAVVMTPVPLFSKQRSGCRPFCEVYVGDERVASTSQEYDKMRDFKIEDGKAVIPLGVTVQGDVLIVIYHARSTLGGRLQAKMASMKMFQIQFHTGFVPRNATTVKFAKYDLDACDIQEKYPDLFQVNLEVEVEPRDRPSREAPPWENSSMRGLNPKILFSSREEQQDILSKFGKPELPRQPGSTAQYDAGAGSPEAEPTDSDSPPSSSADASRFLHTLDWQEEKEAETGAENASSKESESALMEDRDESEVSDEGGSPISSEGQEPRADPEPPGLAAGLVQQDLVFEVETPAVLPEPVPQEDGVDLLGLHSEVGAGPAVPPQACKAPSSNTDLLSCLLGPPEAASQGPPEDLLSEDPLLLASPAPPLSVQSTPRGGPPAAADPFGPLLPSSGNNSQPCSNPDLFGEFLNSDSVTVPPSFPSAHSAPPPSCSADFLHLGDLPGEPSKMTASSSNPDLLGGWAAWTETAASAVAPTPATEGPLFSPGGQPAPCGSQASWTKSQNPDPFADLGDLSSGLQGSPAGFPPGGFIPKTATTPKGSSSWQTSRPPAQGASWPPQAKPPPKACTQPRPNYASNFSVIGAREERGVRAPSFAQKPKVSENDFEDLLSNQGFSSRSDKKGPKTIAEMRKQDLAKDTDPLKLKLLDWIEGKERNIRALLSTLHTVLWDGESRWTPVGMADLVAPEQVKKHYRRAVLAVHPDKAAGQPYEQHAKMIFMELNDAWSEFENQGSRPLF
Where a name gives a salt, the structure may show the parent alone. The source made the active and inactive calls.
Write down one outcome, taken from active, inactive

Which result was noted for this compound in the test: Cn1cnc2c(F)c(Nc3ccc(Br)cc3F)c(C(=O)NOCCO)cc21
inactive

Which result was noted for this compound in the test: C[C@@H](N)c1ccc(C(=O)Nc2ccnc3[nH]ccc23)cc1
inactive

Which result was noted for this compound in the test: COc1ncc(-c2ccc3nccc(-c4ccnnc4)c3c2)cc1NS(=O)(=O)c1ccc(F)cc1F
inactive

Which result was noted for this compound in the test: Nc1ncnc2c1c(-c1cccc(OCc3ccccc3)c1)cn2[C@H]1C[C@@H](CN2CCC2)C1
inactive

Which result was noted for this compound in the test: CNC(=O)c1cc(Oc2ccc(NC(=O)Nc3cc(C(C)(C)C)nn3-c3ccc4ncccc4c3)c(F)c2)ccn1
inactive

Which result was noted for this compound in the test: COc1ccc(S(=O)(=O)N(C(C)=O)c2ccccc2/C=C/c2cc[n+]([O-])cc2)cc1
inactive

Which result was noted for this compound in the test: CCCCCCCCCCCCCCCCCCOP(=O)([O-])OC1CC[N+](C)(C)CC1
inactive

Which result was noted for this compound in the test: Cc1csc(-c2nnc(Nc3ccc(Oc4ncccc4-c4ccnc(N)n4)cc3)c3ccccc23)c1
inactive

Which result was noted for this compound in the test: COCC(=O)NC/C=C/c1ccc2ncnc(Nc3ccc(Oc4ccc(C)nc4)c(C)c3)c2c1
inactive

Which result was noted for this compound in the test: O=C(Nc1nc2cccc(-c3ccc(CN4CCS(=O)(=O)CC4)cc3)n2n1)C1CC1
inactive

Which result was noted for this compound in the test: C[C@@H](NC(=O)c1ncnc(N)c1Cl)c1ncc(C(=O)Nc2cc(C(F)(F)F)c(Cl)cn2)s1
inactive

Which result was noted for this compound in the test: CCS(=O)(=O)N1CCN(c2ccc(Nc3ncc(C(N)=O)c(NC4CC4)n3)cc2)CC1 [Cerdulatinib Hydrochloride]
active

Which result was noted for this compound in the test: C=CC(=O)Nc1cc2c(Nc3ccc(F)c(Cl)c3)ncnc2cc1C#CC(C)(C)N1CCN(C)CC1 [AV-412 FREE BASE]
inactive

Which result was noted for this compound in the test: C[C@@H](Oc1cc(C(=O)Nc2ccc(C(=O)N3CCN(C)CC3)cc2)nnc1N)c1c(Cl)ccc(F)c1Cl
inactive

Which result was noted for this compound in the test: Cc1[nH]c(/C=C2\C(=O)Nc3ccccc32)c(C)c1CCC(=O)O [ORANTINIB]
active

Which result was noted for this compound in the test: COCc1c(-c2ccc(NC(=O)Nc3cc(C(F)(F)F)ccc3F)c(F)c2)c2c(N)ncnn2c1CN1CCOCC1
inactive

Which result was noted for this compound in the test: NC(=O)Nc1cc(-c2cccc(F)c2)sc1C(=O)N[C@H]1CCCNC1
active
